# Test system: Rattus norvegicus
# MEASUREMENT_NOTES: Antithrombin activity in rat at 1 mg/kg, iv after 60 mins measured as ecarin clotting time prolongation
# Assay type: functional
Entries annotated with measured Time

{"STRUCTURE_STRING": "C=C1C[C@@H](C(=O)NCc2ccc(C(=N)N)nc2)N(C(=O)[C@@H](CC2CCCCC2)NCC(=O)O)C1", "READOUT_UNITS": "s", "Time": 59}
{"STRUCTURE_STRING": "N=C(N)c1ccc(CNC(=O)[C@@H]2CC(F)(F)CN2C(=O)[C@@H](CC2CCCCC2)NCC(=O)O)cn1", "READOUT_UNITS": "s", "Time": 38}
{"STRUCTURE_STRING": "N=C(N)c1ccc(CNC(=O)C2(NC(=O)[C@@H](CC3CCCCC3)NCC(=O)O)CCCCC2)cn1", "READOUT_UNITS": "s", "Time": 35}
{"STRUCTURE_STRING": "N=C(N)c1ccc(CNC(=O)[C@@H]2CC=CCN2C(=O)[C@@H](CC2CCCCC2)NCC(=O)O)cn1", "READOUT_UNITS": "s", "Time": 59}
